Tested on: P-gp
Test: Apparent permeability (Papp, BA/AB) in Caco-2 cell monolayer
Conditions: human, Caco-2, P app (BA/AB), two experiments in duplicate
MEASURED METRIC: efflux ratio at 120 min, 100 μM

Worked examples follow.
| MOLECULE | EXPERIMENTAL TARGET | efflux ratio at 120 min, 100 μM |
| --- | --- | --- |
| COc1ccc(C(c2ccc(OC)cc2)c2nc(Nc3ccc(CCN4CCc5cc(OC)c(OC)cc5C4)cc3)c3ccccc3n2)cc1 | P-gp | 32.9 |
| c1ccc2c(-c3nc(N4CCOCC4)c4ccccc4n3)c3ccccc3cc2c1 | P-gp | 20 |
| COc1cc2c(cc1OC)CN(CCc1ccc(NC(=O)c3cc(OC)c(OC)cc3NC(=O)c3cnc4ccccc4c3)cc1)CC2 [tariq, tariquidar, reference compound] | P-gp | > 20 |

Would you be so kind as to report efflux ratio at 120 min, 100 μM for each listed record?
1. COc1ccc2ccccc2c1-c1nc(N2CCN(C)CC2)c2ccccc2n1
2. COc1ccc(-c2nc(NCCc3ccccc3)c3ccccc3n2)c(OC)c1OC
3. COc1ccc(-c2nc(N3CCOCC3)c3ccccc3n2)c(OC)c1OC
4. COc1ccc(C(c2ccc(OC)cc2)c2nc(N3CCOCC3)c3ccccc3n2)cc1
5. COc1ccc(C(c2ccc(OC)cc2)c2nc(N3CCN(C)CC3)c3ccccc3n2)cc1

Ans:
1: 5.4; 2: 14.8; 3: 3.8; 4: < 2; 5: 6.9
